# TESTED TARGET: 5'-nucleotidase (Homo sapiens, UniProt P21589)
# Sequence (P21589 whole entry): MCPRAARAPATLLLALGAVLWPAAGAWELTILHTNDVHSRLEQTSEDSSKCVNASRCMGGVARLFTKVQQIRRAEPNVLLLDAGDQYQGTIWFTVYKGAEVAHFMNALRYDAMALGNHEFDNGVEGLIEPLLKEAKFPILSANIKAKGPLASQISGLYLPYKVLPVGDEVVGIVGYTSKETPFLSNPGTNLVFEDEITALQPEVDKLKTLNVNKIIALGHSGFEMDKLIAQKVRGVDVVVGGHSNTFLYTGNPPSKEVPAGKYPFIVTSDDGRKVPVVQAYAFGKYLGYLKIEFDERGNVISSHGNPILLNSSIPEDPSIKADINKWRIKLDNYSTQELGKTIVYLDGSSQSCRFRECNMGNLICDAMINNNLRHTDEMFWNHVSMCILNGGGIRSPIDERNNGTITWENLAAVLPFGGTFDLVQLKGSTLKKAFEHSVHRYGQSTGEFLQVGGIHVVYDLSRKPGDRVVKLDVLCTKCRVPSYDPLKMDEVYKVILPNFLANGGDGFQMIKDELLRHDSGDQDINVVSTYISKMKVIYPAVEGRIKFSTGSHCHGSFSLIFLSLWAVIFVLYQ
# METHOD NOTES: Inhibition of CD73 in human CD8+ T-cells assessed as reduction in AMP-induced ADO expression preincubated for 15 mins followed by AMP addition and measured after 1 hr by LC-MS/MS analysis
# Assay type: tissue-based, CD8-positive T cell

MOL SMILES: COC[C@](CO)(OC[C@H]1O[C@@H](n2ncc3c(NC4CCCC4)nc(Cl)nc32)[C@H](O)[C@@H]1O)P(=O)(O)O
EC50 (nM): 0.22

###

Below, each of the compounds is paired with its reported AUC(0-inf) value.
# METHOD NOTES: AUC infinity in mouse at 200 mg/kg, po
# Format: ADME, organism-based
# Set-up: route oral, time infinity, dose 200 mg/kg
# CONDITION: in vivo

MOL SMILES: O=P(O)(O)C(CO)(CO)OC[C@H]1O[C@@H](n2ncc3c(NC4CCCC4)nc(Cl)nc32)[C@H](O)[C@@H]1O
MEASUREMENT UNIT: µM·h
AUC(0-inf): 95.6
//
MOL SMILES: C[C@@](CO)(OC[C@H]1O[C@@H](n2ncc3c(NC4CCCC4)nc(Cl)nc32)[C@H](O)[C@@H]1O)P(=O)(O)O
MEASUREMENT UNIT: µM·h
AUC(0-inf): 54.2
//
MOL SMILES: COC[C@](CO)(OC[C@H]1O[C@@H](n2ncc3c(NC4CCCC4)nc(Cl)nc32)[C@H](O)[C@@H]1O)P(=O)(O)O
MEASUREMENT UNIT: µM·h
AUC(0-inf): 45.1

###

# METHOD NOTES: Terminal half life in rat at 50 mg/kg, po
# Assay type: ADME, organism-based
# CONDITION: in vivo, read-out: beta t1/2 (converted)

MOL SMILES: O=P(O)(O)CS(=O)(=O)C[C@H]1O[C@@H](n2ncc3c(NCc4ccccc4Cl)nc(Cl)nc32)[C@H](O)[C@@H]1O
half-life / min: 180
--
MOL SMILES: O=P(O)(O)COC[C@H]1O[C@@H](n2ncc3c(NCc4ccccc4Cl)nc(Cl)nc32)[C@H](O)[C@@H]1O
half-life / min: 114

###

Below, each of the compounds is paired with its reported Cmax value.
# METHOD NOTES: Cmax in mouse at 200 mg/kg, po
# Format: ADME, organism-based
# Set-up: route oral, dose 200 mg/kg
# CONDITION: in vivo

MOL SMILES: O=P(O)(O)C(CO)(CO)OC[C@H]1O[C@@H](n2ncc3c(NC4CCCC4)nc(Cl)nc32)[C@H](O)[C@@H]1O
Cmax: 67.4 µM
--
MOL SMILES: COC[C@](CO)(OC[C@H]1O[C@@H](n2ncc3c(NC4CCCC4)nc(Cl)nc32)[C@H](O)[C@@H]1O)P(=O)(O)O
Cmax: 42.2 µM
--
MOL SMILES: C[C@@](CO)(OC[C@H]1O[C@@H](n2ncc3c(NC4CCCC4)nc(Cl)nc32)[C@H](O)[C@@H]1O)P(=O)(O)O
Cmax: 54.9 µM

###

# METHOD NOTES: AUC in cynomolgus monkey at 10 mg/kg, po
# Type: ADME, organism-based, Macaca fascicularis
# Parameters: dose 10 mg/kg
# CONDITION: in vivo

MOL SMILES: COC[C@](CO)(OC[C@H]1O[C@@H](n2ncc3c(NC4CCCC4)nc(Cl)nc32)[C@H](O)[C@@H]1O)P(=O)(O)O
AUC [µM·h]: 14.2
